As shown below, each of these compounds has a reported IC50 value.
Test system: A2780
assay name: MTT growth inhibition (in vitro cytotoxicity), A2780
Format: cell-based
experimental conditions: Homo sapiens, average IC50
Give your result in µM as a bare value.

See these solved cases before continuing.
COc1ccc2c3c([nH]c2c1)C(CC(CC1NCCc2c1[nH]c1cc(OC)ccc21)c1ccccc1)NCC3 (stereo not drawn): 3.4
COc1ccc2[nH]c3c(c2c1)CCN=C3CCCC1=NCCc2c1[nH]c1ccc(OC)cc21: 2.54

Attention now shifts to the item below.
Task: What does the record list as IC50 for COc1ccc2c3c([nH]c2c1)C(CC(CC1=NCCc2c1[nH]c1cc(OC)ccc21)c1ccc(O)c(OC)c1)=NCC3 ?
Output: 5

* * *

Entries and their IC50
Tested on: MOLP-8
assay name: MTT growth inhibition (in vitro cytotoxicity), MOLP-8
Type: cell-based
experimental conditions: Homo sapiens, average IC50
Return type: number; implicit unit µM.

A selection of reference data follows.
COc1ccc2c3c([nH]c2c1)C(CC(CC1=NCCc2c1[nH]c1cc(OC)ccc21)c1ccc(O)c(OC)c1)=NCC3 [Compound 5]: 3.37
COc1ccc2[nH]c3c(c2c1)CCN=C3CCCCC1=NCCc2c1[nH]c1ccc(OC)cc21 [Compound 9]: 3.68
COc1ccc2nc(CC(Cc3ccc4cc(OC)ccc4n3)c3ccccc3)ccc2c1 [Compound 18]: 15

Turning now to a further compound:
Task: # query: IC50 of entry c1ccc(C(Cc2ccc3ccccc3n2)Cc2ccc3ccccc3n2)cc1 [Compound 17]
Output: 6.56

* * *

Test system: A498
assay name: MTT growth inhibition (in vitro cytotoxicity), A498
Assay type: cell-based
experimental conditions: Homo sapiens, average IC50
Listed here are compounds together with their documented IC50.

COc1ccc2[nH]c3c(c2c1)CCN=C3CCCC1=NCCc2c1[nH]c1ccc(OC)cc21: 5.39 µM
COc1cc(C(Cc2ccc3ccccc3n2)Cc2ccc3ccccc3n2)ccc1O: 81.3 µM
COc1ccc2[nH]c3c(c2c1)CCN=C3CC(C)(C)CC1=NCCc2c1[nH]c1ccc(OC)cc21: 1.71 µM

Here's the next entry for you.
Task: Reported IC50, compound COc1ccc2c3c([nH]c2c1)C(CC(CC1=NCCc2c1[nH]c1cc(OC)ccc21)c1ccc(O)c(OC)c1)=NCC3 : ____
Output: 3.56 µM

* * *

System: OCI-LY3
assay name: MTT growth inhibition (in vitro cytotoxicity), OCI-LY3
Format: cell-based
experimental conditions: Homo sapiens, average IC50
# pIC50 per entry
Just the number, please; pIC50 means minus log10 of the concentration in mol/L.

Solved cases (5 shown):
COc1ccc2nc(CC(Cc3ccc4cc(OC)ccc4n3)c3ccccc3)ccc2c1 [Compound 18]: 4.37
COc1cc(C(Cc2ccc3ccccc3n2)Cc2ccc3ccccc3n2)ccc1O [Compound 16]: 4.11
COc1ccc2c3c([nH]c2c1)C(CC(CC1=NCCc2c1[nH]c1cc(OC)ccc21)c1ccc(O)c(OC)c1)=NCC3 [Compound 5]: 5.34
COc1cc(C(Cc2nccc3ccccc23)Cc2nccc3ccccc23)ccc1O [Compound 13]: 4.43
COc1ccc2[nH]c3c(c2c1)CCN=C3CCCCC1=NCCc2c1[nH]c1ccc(OC)cc21 [Compound 9]: 5.16

Task: Return reported pIC50; argument: COc1ccc2[nH]c3c(c2c1)CCN=C3CCCC1=NCCc2c1[nH]c1ccc(OC)cc21 [Compound 7]
Output: 5.05

Task: Fill in the blank: the reported pIC50 of COc1ccc2[nH]c3c(c2c1)CCN=C3CC(C)(C)CC1=NCCc2c1[nH]c1ccc(OC)cc21 [Compound 8] is ____.
Output: 5.59

Task: // pIC50 lookup, key: c1ccc(C(Cc2ccc3ccccc3n2)Cc2ccc3ccccc3n2)cc1 [Compound 17]
Output: 4.62
